Experiment: Selectivity index, ratio of CC50 for cytotoxicity against human HepG2.2.15 cells to EC50 for antiviral activity against HBV ayw1 infected in human HepG2.2.15 cells
Format: toxicity, cell-based
Conditions: read-out: Ratio CC50/EC50
PARAMETER_MEASURED: selectivity ratio

structure_as_smiles=Nc1nc(F)cc2c1ncn2C1=C[C@H](CO)[C@@H](O)[C@H]1O parameter_measured="selectivity ratio" measured=113
structure_as_smiles=Nc1ccn([C@@H]2CS[C@H](CO)O2)c(=O)n1 parameter_measured="selectivity ratio" measured="> 99"
structure_as_smiles=Nc1ncc(F)c2c1ncn2C1=C[C@H](CO)[C@@H](O)[C@H]1O parameter_measured="selectivity ratio" measured="> 2760"

----------
Experiment: Selectivity index, ratio of CC50 for cytotoxicity against African green monkey Vero cells infected with Pichinde virus AN 4763 by visual analysis to EC50 for antiviral activity against Pichinde virus AN 4763 infected in African green monkey Vero cells by visual analysis
Type: toxicity, cell-based
Conditions: read-out: Ratio CC50/EC50
PARAMETER_MEASURED: selectivity ratio

structure_as_smiles=NC(=O)c1ncn([C@@H]2O[C@H](CO)[C@@H](O)[C@H]2O)n1 parameter_measured="selectivity ratio" censoring_qualifier=> measured=91
structure_as_smiles=Nc1nc(F)cc2c1ncn2C1=C[C@H](CO)[C@@H](O)[C@H]1O parameter_measured="selectivity ratio" censoring_qualifier== measured=14

----------
Test system: Tacaribe virus
Assay: Antiviral activity against Tacaribe virus TRVL11573 infected in African green monkey Vero cells by neutral red dye based analysis
Format: functional, organism-based
Settings: Mammarenavirus tacaribeense
pEC50: −log10 of the molar value.
PARAMETER_MEASURED: pEC50

structure_as_smiles=NC(=O)c1ncn([C@@H]2O[C@H](CO)[C@@H](O)[C@H]2O)n1 target_of_assay="Tacaribe virus" measured=4.51
structure_as_smiles=Nc1nc(F)cc2c1ncn2C1=C[C@H](CO)[C@@H](O)[C@H]1O target_of_assay="Tacaribe virus" measured=5.07

----------
Assay: Selectivity index, ratio of CC50 for cytotoxicity against African green monkey Vero cells infected with Marburgvirus Angola to EC50 for antiviral activity against Marburgvirus Angola infected in African green monkey Vero cells
Type: toxicity, cell-based
Conditions: read-out: Ratio CC50/EC50
PARAMETER_MEASURED: selectivity ratio

structure_as_smiles=NC(=O)c1nc(F)cnc1O measured="> 6"
structure_as_smiles=Nc1ncc(F)c2c1ncn2C1=C[C@H](CO)[C@@H](O)[C@H]1O measured="> 1000"

----------
Test system: Pichinde virus
Assay: Antiviral activity against Pichinde virus AN 4763 infected in African green monkey Vero cells by neutral red dye based analysis
Assay type: functional, organism-based
Conditions: AN 4763, Vero
pEC50: −log10 of the molar value.
PARAMETER_MEASURED: pEC50

molecule=Nc1nc(F)cc2c1ncn2C1=C[C@H](CO)[C@@H](O)[C@H]1O target_of_assay="Pichinde virus" measured=5.59
molecule="NC(=O)c1ncn([C@@H]2O[C@H](CO)[C@@H](O)[C@H]2O)n1 [RIBAVIRIN]" target_of_assay="Pichinde virus" measured=4.44

----------
Experiment: Selectivity index, ratio of CC50 for cytotoxicity against African green monkey Vero 76 cells infected with Rift Valley fever virus MP-12 by visual analysis to EC50 for antiviral activity against Rift Valley fever virus MP-12 infected in African green monkey Vero 76 cells by visual analysis
Format: toxicity, cell-based
Details: read-out: Ratio CC50/EC50
PARAMETER_MEASURED: selectivity ratio

molecule="NC(=O)c1ncn([C@@H]2O[C@H](CO)[C@@H](O)[C@H]2O)n1 [RIBAVIRIN]" parameter_measured="selectivity ratio" censoring_qualifier=> measured=83
molecule=Nc1nc(F)cc2c1ncn2C1=C[C@H](CO)[C@@H](O)[C@H]1O parameter_measured="selectivity ratio" censoring_qualifier== measured=5.2

Data origin, for the record: ChEMBL document CHEMBL5252611
